For each entry below, report its growth sensitivity score value.
# Tested on: S. cerevisiae BY4741 (wild-type), vegetative growth in YPD
# measurement.notes: growth sensitivity score (doubling time z-score vs DMSO controls); higher = slower growth, strongly negative scores also mark growth inhibition (complete suppression), active = hit call of the paper
One number for each entry.

molecule	experimental.result
Nc1ccc2cn[nH]c2c1 [6-Aminoindazole] (stock concentration (mM, diluted 1:100): 10)	-0.64

For each of the molecules below, note its growth sensitivity score.
1. Cc1cn([C@H]2C=C[C@@H](CO)O2)c(=O)[nH]c1=O [Stavudine] (stock concentration (mM, diluted 1:100): 10)
2. Nc1nc2ccc(Cl)cc2c2nc(-c3ccco3)nn12 (stock concentration (mM, diluted 1:100): 10)
3. CCC(=O)NS(=O)(=O)c1ccc(-c2c(-c3ccccc3)noc2C)cc1 [Parecoxib] (stock concentration (mM, diluted 1:100): 9.8)
4. CCC(C)(C)N=C(NC#N)Nc1cccnc1 [Tocris-1355] (stock concentration (mM, diluted 1:100): 9.9)
5. C=C1/C(=C\C=C2/CCC[C@]3(C)[C@@H]([C@H](C)/C=C/[C@@H](O)C4CC4)CC[C@@H]23)C[C@@H](O)C[C@@H]1O [Calcipotriol] (stock concentration (mM, diluted 1:100): 10.1)
6. CC1=Nc2ccc(Cl)cc2S(=O)(=O)N1 [Diazoxide] (stock concentration (mM, diluted 1:100): 10)

1. 0.1
2. 5.26
3. -0.35
4. 0.46
5. -0.31
6. -0.72

For each of the molecules below, note its growth sensitivity score.
1. OC[C@H]1O[C@@H](n2cnc3c(N[C@H]4CCC[C@@H]4O)ncnc32)[C@@H](O)C1O (some centres not stated) (stock concentration (mM, diluted 1:100): 10)
2. Cc1cc2c(s1)Nc1ccccc1N=C2N1CCN(C)CC1 [Olanzapine] (stock concentration (mM, diluted 1:100): 9.9)
3. CCC1=C[C@H]2CN(C1)Cc1c([nH]c3ccccc13)[C@@](C(=O)OC)(c1cc3c(cc1OC)N(C)[C@H]1[C@@](O)(C(=O)OC)[C@H](OC(C)=O)[C@]4(CC)C=CCN5CC[C@]31[C@@H]54)C2 [Vinorelbine bitatrate] (stock concentration (mM, diluted 1:100): 7.2)
4. COC(=O)Nc1nc2cc(C(=O)c3ccc(F)cc3)ccc2[nH]1 [Flubendazole] (stock concentration (mM, diluted 1:100): 10)
5. Nc1ccn([C@H]2CC[C@@H](CO)O2)c(=O)n1 [Zalcitabine] (stock concentration (mM, diluted 1:100): 10)

[-0.79, -0.76, -1.83, 2.6, -1.35]

The reported numbers originate from the supplement of paper PMC3414501.
